B1: Osa-1-4 twister ribozyme (parent)
chain: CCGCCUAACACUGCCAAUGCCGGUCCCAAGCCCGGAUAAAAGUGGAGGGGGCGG

Variants of: B1
Method notes: self-cleavage, relative activity (ratio to wild type); higher = more cleavage; co-transcriptional
Observable: self-cleavage
// keep it numeric: no unit symbol after the value

Mutant id	self-cleavage
A16U G13C	0.02

# query: self-cleavage of entry A8C U18G 0.17

Try A16C G44U next. 0.94

Try C14G G13U next. 0.05

Try G23A G44U next. 0.18

Try C52A G42A next. 0.68
